# EC50 per entry
Biological target: 5HT2C receptors (Homo sapiens, UniProt P28335)
Sequence (P28335 33-458): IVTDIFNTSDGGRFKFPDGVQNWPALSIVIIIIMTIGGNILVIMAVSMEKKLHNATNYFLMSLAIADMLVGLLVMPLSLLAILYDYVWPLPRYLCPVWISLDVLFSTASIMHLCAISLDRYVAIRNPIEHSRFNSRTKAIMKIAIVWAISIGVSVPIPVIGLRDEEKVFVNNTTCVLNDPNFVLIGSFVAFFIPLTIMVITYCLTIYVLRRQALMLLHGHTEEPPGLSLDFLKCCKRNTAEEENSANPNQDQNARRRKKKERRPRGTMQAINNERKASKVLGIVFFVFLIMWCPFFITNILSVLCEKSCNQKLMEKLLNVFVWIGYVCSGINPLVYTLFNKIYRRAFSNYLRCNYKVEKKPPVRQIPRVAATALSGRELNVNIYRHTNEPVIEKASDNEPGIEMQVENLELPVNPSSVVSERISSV
Experiment: Human 5-HT2C functional high throughput screening assay in CHO-K1 cells (calcium flux)
Format: cell-based
Design: expressed in transfected cells; host or cells: CHO-K1 cells
Details: 5-HT2C agonist activity; CHO-K1 cells; calcium flux; read-out: EC50

# molecule, EC50, nM
measured = [
    ("O=S(=O)(c1ccccc1C(F)(F)F)N1Cc2cccnc2[C@@H]2CNC[C@H]2C1 (relative stereo) [Example 365]", 500),
    ("C[C@@H](Cc1ccccc1)Oc1ccc2c(c1)C(=O)NC[C@@H]1CNC[C@@H]21 (mixture of isomers) [Example 149]", 4),
    ("C[C@@H](O)c1cccc(-c2ccc3c(c2)C(=O)NC[C@H]2CN(C)C[C@H]32)c1 [Example 249]", 2),
    ("c1ccc(CN2C[C@H]3CCNc4ccccc4[C@@H]3C2)cc1 (relative stereo) [Example 254]", 1000),
    ("CC(C)COc1cccc(-c2ccc3c(c2)C(=O)NC[C@@H]2CN(C)C[C@@H]32)c1 (relative stereo) [Example 134]", 60),
    ("CN1C[C@H]2CNC(=O)c3cc(-c4ccccc4)ccc3[C@@H]2C1 (relative stereo) [Example 86]", 7),
    ("COC(=O)c1cccc(CN2C[C@H]3CNC(=O)c4ccccc4[C@@H]3C2)c1 (relative stereo) [Example 68]", 7),
]

----------
Molecular target: 5HT2C receptors (Homo sapiens)
Sequence (P28335 33-458): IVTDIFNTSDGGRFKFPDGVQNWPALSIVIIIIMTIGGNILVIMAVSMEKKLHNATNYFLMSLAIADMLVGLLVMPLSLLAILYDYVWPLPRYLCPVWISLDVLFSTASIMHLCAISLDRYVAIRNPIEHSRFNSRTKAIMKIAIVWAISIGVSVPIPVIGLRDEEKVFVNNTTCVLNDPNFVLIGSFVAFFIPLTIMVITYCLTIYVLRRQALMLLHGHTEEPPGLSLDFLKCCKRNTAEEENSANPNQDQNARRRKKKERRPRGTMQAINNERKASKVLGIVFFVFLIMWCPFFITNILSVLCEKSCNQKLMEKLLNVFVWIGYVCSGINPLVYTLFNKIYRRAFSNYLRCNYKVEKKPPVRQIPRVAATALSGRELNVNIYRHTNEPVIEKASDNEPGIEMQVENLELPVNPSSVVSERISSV
Test: Human 5-HT2C functional high throughput screening assay in CHO-K1 cells (calcium flux)
Type: cell-based
Design: expressed in transfected cells; host or cells: CHO-K1 cells
Conditions: CHO-K1; 5-HT2C; maximum functional response as percentage relative to the effect of serotonin
Cut-off 90% on Emax, inclusive. At or above means 1 (yes); below means 0 (no).

# molecule, testSystem, group
data = [
    ("Cc1ccc2c(c1)OCC[C@H]1CNC[C@H]21 (relative stereo)", "5HT2C receptors (Homo sapiens)", "1 (yes)"),
    ("COc1cc(OC)c2c(c1)C(=O)NC[C@@H]1CNC[C@@H]21 (relative stereo)", "5HT2C receptors (Homo sapiens)", "1 (yes)"),
    ("CN1C[C@@H]2CNC[C@H]2c2ccc(F)cc2C1=O [Example 226]", "5HT2C receptors (Homo sapiens)", "1 (yes)"),
    ("CN1C[C@@H]2CNC(=O)c3c(OC(F)(F)F)cccc3[C@H]2C1", "5HT2C receptors (Homo sapiens)", "1 (yes)"),
    ("O=C1NC[C@@H]2CN(Cc3ccccc3)C[C@H]2c2cnccc21 (relative stereo)", "5HT2C receptors (Homo sapiens)", "0 (no)"),
    ("O=C1NC[C@@H]2CN(Cc3ccccc3)C[C@H]2c2ncccc21 (relative stereo)", "5HT2C receptors (Homo sapiens)", "1 (yes)"),
    ("Clc1cccc2c1NCC[C@@H]1CNC[C@@H]21 (relative stereo)", "5HT2C receptors (Homo sapiens)", "1 (yes)"),
    ("COc1cccc2c1[C@H]1CNC[C@@H]1CCO2 (relative stereo)", "5HT2C receptors (Homo sapiens)", "1 (yes)"),
    ("COc1cccc2c1OCC[C@H]1CNC[C@H]21 (relative stereo)", "5HT2C receptors (Homo sapiens)", "0 (no)"),
    ("CN1C[C@H]2CNC(=O)c3cc(OCc4ccccc4)ccc3[C@@H]2C1 (relative stereo)", "5HT2C receptors (Homo sapiens)", "1 (yes)"),
    ("O=C1NC[C@@H]2CNC[C@H]2c2ccc(F)cc21 (relative stereo)", "5HT2C receptors (Homo sapiens)", "1 (yes)"),
    ("O=C1NC[C@@H]2CNC[C@H]2c2ccc(OCc3ccccc3F)cc21 (relative stereo) [Example 147]", "5HT2C receptors (Homo sapiens)", "1 (yes)"),
    ("C[C@H](Oc1ccc2c(c1)C(=O)NC[C@@H]1CNC[C@@H]21)c1ccccc1 (mixture of isomers)", "5HT2C receptors (Homo sapiens)", "1 (yes)"),
    ("Clc1cccc2c1OCC[C@H]1CNC[C@@H]21 (relative stereo)", "5HT2C receptors (Homo sapiens)", "1 (yes)"),
    ("Cc1noc(C)c1-c1ccc2c(c1)C(=O)NC[C@@H]1CNC[C@@H]21 (single isomer, unassigned)", "5HT2C receptors (Homo sapiens)", "1 (yes)"),
    ("CN1C[C@H]2CNC(=O)c3c(OC(F)(F)F)cccc3[C@@H]2C1 (relative stereo) [Example 110]", "5HT2C receptors (Homo sapiens)", "1 (yes)"),
    ("CN1C[C@H]2CCN(C)c3ccc(Cl)cc3[C@@H]2C1 (relative stereo)", "5HT2C receptors (Homo sapiens)", "0 (no)"),
    ("COC(=O)c1cccc2c1NCC[C@@H]1CNC[C@@H]21 (relative stereo)", "5HT2C receptors (Homo sapiens)", "1 (yes)"),
    ("Cc1cccc(S(=O)(=O)N2Cc3cccnc3[C@@H]3CNC[C@H]3C2)c1 (relative stereo)", "5HT2C receptors (Homo sapiens)", "0 (no)"),
    ("c1ccc(CN2CC[C@@H]3CNC[C@H]3c3ccccc32)cc1 (relative stereo)", "5HT2C receptors (Homo sapiens)", "0 (no)"),
    ("Clc1ccc2c(c1)[C@H]1CNC[C@@H]1CCO2 (relative stereo) [Example 95]", "5HT2C receptors (Homo sapiens)", "1 (yes)"),
    ("c1ccc2c(c1)OCC[C@@H]1CNC[C@@H]21", "5HT2C receptors (Homo sapiens)", "1 (yes)"),
    ("CC(C)CCOc1ccc2c(c1)C(=O)NC[C@@H]1CNC[C@@H]21 (relative stereo)", "5HT2C receptors (Homo sapiens)", "1 (yes)"),
    ("O=C1NC[C@@H]2CNC[C@H]2c2ccc(OCC3CCCCC3)cc21 (relative stereo)", "5HT2C receptors (Homo sapiens)", "1 (yes)"),
    ("COc1ccc2c(c1)[C@H]1CNC[C@@H]1CCC2=O", "5HT2C receptors (Homo sapiens)", "1 (yes)"),
]

----------
Target: 5HT2C receptors (Homo sapiens)
Sequence (P28335 33-458): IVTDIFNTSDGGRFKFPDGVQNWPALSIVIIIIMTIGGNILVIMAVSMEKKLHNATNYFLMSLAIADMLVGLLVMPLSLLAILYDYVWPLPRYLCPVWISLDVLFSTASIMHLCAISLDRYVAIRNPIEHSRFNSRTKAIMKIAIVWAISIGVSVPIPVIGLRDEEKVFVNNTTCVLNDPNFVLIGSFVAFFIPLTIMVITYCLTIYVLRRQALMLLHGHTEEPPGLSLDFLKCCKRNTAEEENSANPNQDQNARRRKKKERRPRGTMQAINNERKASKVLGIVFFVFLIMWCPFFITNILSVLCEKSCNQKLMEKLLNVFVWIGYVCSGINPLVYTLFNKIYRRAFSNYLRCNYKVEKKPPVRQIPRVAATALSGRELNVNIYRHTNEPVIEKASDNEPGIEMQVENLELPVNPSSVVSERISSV
Assay: Human 5-HT2C functional high throughput screening assay in CHO-K1 cells (calcium flux)
Format: cell-based
Parameters: expressed in transfected cells; host or cells: CHO-K1 cells
Details: EC50, 5-HT2C agonist activity; CHO-K1 cells; calcium flux
# EC50 per entry

# compound, EC50 [nM]
records = [
    ("CC(C)CCOc1ccc2c(c1)C(=O)NC[C@@H]1CN(C)C[C@@H]21 (relative stereo)", 30),
    ("O=C1NC[C@@H]2CNC[C@H]2c2c(F)cccc21 (relative stereo)", 5),
    ("Brc1ccc2c(c1)[C@@H]1CNC[C@H]1CCN2 (relative stereo)", 30),
    ("COc1ccc2c(c1)[C@H]1CNC[C@@H]1CCC2=O", 60),
    ("CN1C[C@H]2CCN(C)c3ccc(Cl)cc3[C@@H]2C1 (relative stereo)", 500),
    ("CCC(C)Oc1ccc2c(c1)C(=O)NC[C@@H]1CNC[C@@H]21 (relative stereo)", 80),
    ("CN1C[C@H]2CNC(=O)c3cc(OCc4ccccc4)ccc3[C@@H]2C1 (relative stereo)", 2),
    ("C[C@H](Oc1ccc2c(c1)C(=O)NC[C@@H]1CNC[C@@H]21)c1ccccc1 (mixture of isomers)", 50),
    ("O=C1NC[C@@H]2CNC[C@H]2c2cc3c(cc21)CCCC3 (relative stereo)", 10),
    ("Oc1cccc2c1[C@H]1CNC[C@@H]1CCO2 (relative stereo)", 80),
    ("CN1C[C@H]2CNC(=O)c3ccc(F)cc3[C@@H]2C1 (relative stereo)", 300),
]
